experiment notes: Probe fluorescence ratio response to arachidonic acid relative to ADIFAB2
Format: binding
condition context: arachidonic acid; response relative to ADIFAB2
Each entry below lists one item and its recorded DR/DR AA value.
When you answer, write just the number.

These recorded examples may help you get a feel for the data.
{"columns": ["molecule", "test result"],
 "data": [
  ["126E, 72A (protein, listed as Rattus norvegicus, PEPTIDE (1)...(131) wild-type rat intestinal fatty acid binding protein) AFDGTWKVDRNENYEKFMEKMGINVVKRKLGAHDNLKLTITQEGNKFTVKESSNFRNIDVVFELGVDFAYSAADGTELTGTWTMEGNKLVGKFKRVDNGKELIAVREISGNELIQTYTYEGVEAKEIFKKE", 0.25],
  ["72S 73W 74G (protein, listed as Rattus norvegicus, PEPTIDE (1)...(131) wild-type rat intestinal fatty acid binding protein) AFDGTWKVDRNENYEKFMEKMGINVVKRKLGAHDNLKLTITQEGNKFTVKESSNFRNIDVVFELGVDFAYSSWGGTELTGTWTMEGNKLVGKFKRVDNGKELIAVREISGNELIQTYTYEGVEAKRIFKKE", 1.012]
]}

Query molecule follows.
Data request: # lookup: DR/DR AA of 14L 18L 31W 73W 117L 72A (protein, listed as Rattus norvegicus, PEPTIDE (1)...(131) wild-type rat intestinal fatty acid binding protein) AFDGTWKVDRNENLEKFLEKMGINVVKRKLWAHDNLKLTITQEGNKFTVKESSNFRNIDVVFELGVDFAYSAWDGTELTGTWTMEGNKLVGKFKRVDNGKELIAVREISGNELIQTLTYEGVEAKRIFKKE
Data returned: 1.772
